Assay: Antiproliferative activity against human CM2005.1 cells assessed as cell growth inhibition incubated for 72 hrs by CCK8 assay
Format: functional, cell-based
Conditions: CM2005.1, 72 h
Measured pIC50, listed per entry for reference.
// returns pIC50 (minus log10 of molar concentration), number only

>>> df
                                   compound  measurednumber
0  CCC(=O)NCCCOc1ccc2ccccc2c1C(=O)CCCc1ccccc1            4.42
1  CCCNCC(O)COc1ccccc1C(=O)CCCc1ccccc1 (centres undefined)            4.60
2  CCCCCCCNCC(O)COc1ccccc1C(=O)CCc1ccccc1 (centres undefined)            5.34
3  CCCNCC(O)COc1cccc(C(=O)CCc2ccccc2)c1 (centres undefined)            4.42
4  CCCNCCCOc1cccc2cccc(C(=O)CCCc3ccccc3)c12            5.08

Could you share which pIC50 value was measured for `CCCNCCCOc1cc2c(cc1C(=O)CCCc1ccccc1)OCCO2` ?
4.94

Proceed to `CCCCCCCNCCCOc1ccccc1C(=O)CCCc1ccccc1`
5.89

Proceed to CCCNCC(O)COc1ccccc1C(O)CCc1ccccc1 (centres undefined)
4.13

Proceed to `CCCNCCCOc1ccccc1C(=O)CCc1ccccc1`
4.16

Proceed to CCCNCC(O)COc1ccc(C(=O)CCc2ccccc2)cc1 (centres undefined)
4.25

Proceed to `CCCCCCNCCCOc1ccccc1C(=O)CCCc1ccccc1`
4.80

Proceed to CCCN(C)CC(O)COc1ccccc1C(=O)CCc1ccccc1 (centres undefined)
4.21

Proceed to `C#CCNCCCOc1ccc2ccccc2c1C(=O)CCCc1ccccc1`
4.93

Proceed to `Cc1cncc(COc2ccc3ccccc3c2C(=O)CCCc2ccccc2)c1`
4.48

Proceed to `CN1CCN(CCCOc2ccc3ccccc3c2C(=O)CCCc2ccccc2)CC1`
5.23
